target: Delta-type opioid receptor (Mus musculus); test: Displacement of [3H]DPDPE from delta opioid receptor in mouse whole brain without cerebellum
Sequence (P32300 whole entry): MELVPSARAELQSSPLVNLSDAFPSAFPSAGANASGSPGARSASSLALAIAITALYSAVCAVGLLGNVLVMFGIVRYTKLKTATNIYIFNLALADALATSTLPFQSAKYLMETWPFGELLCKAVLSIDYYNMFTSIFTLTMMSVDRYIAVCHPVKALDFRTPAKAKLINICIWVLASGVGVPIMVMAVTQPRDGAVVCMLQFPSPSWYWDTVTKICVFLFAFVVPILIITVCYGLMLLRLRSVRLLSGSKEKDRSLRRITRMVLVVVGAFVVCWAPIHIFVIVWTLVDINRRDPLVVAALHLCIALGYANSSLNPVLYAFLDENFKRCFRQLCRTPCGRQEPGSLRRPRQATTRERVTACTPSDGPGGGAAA
observed-property: Ki
Lab note: write values as number then unit, every time.

## Task Returns the measured Ki for the input compound. Input: O=C1N(CCc2ccccc2)CO[C@]12CC[C@@]1(O)[C@@H]3Cc4ccc(O)c5c4[C@@]1(CCN3CC1CC1)[C@H]2O5
## Result 4.82 nM

---

target: Mu-type opioid receptor (Mus musculus, UniProt P42866); assay: Displacement of [3H]DAMGO from mu opioid receptor in mouse whole brain without cerebellum
Sequence (P42866 whole entry): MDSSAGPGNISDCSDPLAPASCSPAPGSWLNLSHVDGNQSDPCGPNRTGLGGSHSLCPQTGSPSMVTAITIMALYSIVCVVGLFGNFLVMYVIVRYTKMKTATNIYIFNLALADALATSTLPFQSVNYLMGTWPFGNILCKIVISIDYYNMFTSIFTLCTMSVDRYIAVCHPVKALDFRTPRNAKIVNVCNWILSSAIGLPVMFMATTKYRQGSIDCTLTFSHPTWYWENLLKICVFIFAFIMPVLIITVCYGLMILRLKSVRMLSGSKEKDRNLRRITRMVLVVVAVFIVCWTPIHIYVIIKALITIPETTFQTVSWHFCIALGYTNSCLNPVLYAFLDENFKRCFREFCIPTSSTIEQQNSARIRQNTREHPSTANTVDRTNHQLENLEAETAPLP
observed-property: pKi
pKi (log units): -log10 of the concentration in mol/L.

## Task Returns the measured pKi for the input compound. Input: O=C1N(CCc2ccccc2)CO[C@]12CC[C@@]1(O)[C@@H]3Cc4ccc(O)c5c4[C@@]1(CCN3CC1CC1)[C@H]2O5
## Result 8.34

---

molecular target: Delta-type opioid receptor (Mus musculus); experiment: Displacement of [3H]DPDPE from delta opioid receptor in mouse whole brain without cerebellum
observed-property: IC50 (nM)
Response body: numeric value in nM, unit text excluded.

## Task What measured IC50 is associated with O=C(NC[C@]12CC[C@@]3(O1)[C@@H]1Cc4ccc(O)cc4[C@@]3(CCN1CC1CC1)C2)c1ccccc1 on Delta-type opioid receptor (Mus musculus)?
## Result 2.07

---

target: Kappa-type opioid receptor (Cavia porcellus)
Sequence (P41144 whole entry): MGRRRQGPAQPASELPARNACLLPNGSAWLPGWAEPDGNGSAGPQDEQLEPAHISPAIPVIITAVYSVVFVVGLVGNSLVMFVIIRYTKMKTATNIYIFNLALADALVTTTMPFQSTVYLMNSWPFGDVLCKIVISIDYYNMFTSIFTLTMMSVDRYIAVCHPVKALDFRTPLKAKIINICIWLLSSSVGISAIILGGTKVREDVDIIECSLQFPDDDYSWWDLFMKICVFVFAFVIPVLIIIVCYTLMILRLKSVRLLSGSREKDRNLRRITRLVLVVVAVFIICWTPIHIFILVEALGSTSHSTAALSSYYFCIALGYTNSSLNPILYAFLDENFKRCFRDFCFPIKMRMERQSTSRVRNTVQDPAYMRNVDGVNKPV
observed-property: Ki (nM)
Response body: numeric value in nM, unit text excluded.

## Task Returns the measured Ki for the input compound. Input: O=C1N(CCc2ccccc2)CO[C@]12CC[C@@]1(O)[C@@H]3Cc4ccc(O)c5c4[C@@]1(CCN3CC1CC1)[C@H]2O5
## Result 8.66

---

target: Mu-type opioid receptor (Mus musculus); experiment: Displacement of [3H]DAMGO from mu opioid receptor in mouse whole brain without cerebellum
observed-property: IC50 (pM)
Response body: numeric value in pM, unit text excluded.

## Task Returns the measured IC50 for the input compound. Input: O=C(NC[C@]12CC[C@@]3(O1)[C@@H]1Cc4ccc(O)cc4[C@@]3(CCN1CC1CC1)C2)c1ccccc1
## Result 288
